# Target Of Assay: σ2-receptor (Mus musculus)
# Sequence (Q8VD00 whole entry): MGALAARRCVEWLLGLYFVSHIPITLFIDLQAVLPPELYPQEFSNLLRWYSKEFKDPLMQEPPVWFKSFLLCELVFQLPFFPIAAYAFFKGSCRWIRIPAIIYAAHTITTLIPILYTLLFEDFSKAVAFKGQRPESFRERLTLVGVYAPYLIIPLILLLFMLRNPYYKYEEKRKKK
Counter-ions that a name gives are not always drawn.
Endpoint Label: log10 Ki (log10 of the value in nM)

Molecule: Cn1ncc2c1CCCC2CCN1CCC(c2ccccc2)CC1.O=C(O)C(=O)O (centres unmarked) [Example 58, oxalate]
Target Of Assay: σ2-receptor (Mus musculus)
Result Value: 0.80

Molecule: Cn1ncc2c1CCCC2CCN1Cc2ccccc2C1.O=C(O)C(=O)O (centres unmarked) [Example 60, oxalate]
Target Of Assay: σ2-receptor (Mus musculus)
Result Value: 1.27

Molecule: O=C(O)C(=O)O.c1ccc(-n2ncc3c2CCC3CCN2CCOCC2)cc1 (centres unmarked) [Example 31, oxalate]
Target Of Assay: σ2-receptor (Mus musculus)
Result Value: 1.24

Molecule: CN(CCC1CCCc2c1cnn2C)Cc1ccccc1.O=C(O)C(=O)O (centres unmarked) [Example 62, oxalate]
Target Of Assay: σ2-receptor (Mus musculus)
Result Value: 1.08

Molecule: Clc1ccc(-n2ncc3c2CCCC3CCN2CCC(c3ccccc3)CC2)cc1Cl (centres unmarked) [Example 4, oxalate]
Target Of Assay: σ2-receptor (Mus musculus)
Result Value: 2.50

Molecule: C(/CN1CCC2(CC1)OCc1ccccc12)=C1/CCCc2c1cnn2-c1ccccc1.O=C(O)C(=O)O [Example 19, oxalate]
Target Of Assay: σ2-receptor (Mus musculus)
Result Value: 2.68

Molecule: C(/CN1CCC(c2ccccc2)CC1)=C1/CCCc2c1cnn2-c1ccccc1 [Example 17]
Target Of Assay: σ2-receptor (Mus musculus)
Result Value: 2.27

Molecule: O=C(O)C(=O)O.c1ccc(-n2ncc3c2CCC3CCN2CCc3ccccc3C2)cc1 (centres unmarked) [Example 44, oxalate]
Target Of Assay: σ2-receptor (Mus musculus)
Result Value: 2.20

Values compiled from patent US8394797B2.
